B1: EHEE_rd3_0053 (parent)
chain: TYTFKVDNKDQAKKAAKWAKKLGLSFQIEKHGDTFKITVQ

Variants of: B1
Assay: folding stability dG (cDNA display proteolysis); higher = more stable
Details: PBS, room temperature
Hi, to clarify the labels: T covers folding stability dG from 2 kcal/mol upward, F covers anything below 2 kcal/mol.

In [3]: df
Out[3]:
                                sequencetext  class
 0  TYTFKVDNKDQHKKAAKWAKKLGLSFQIEKHGDTFKITVQ [A12H]      F
 1  TYTFKVDNKDQAKKAAKWAKKLGLSFQIEKHGDMFKITVQ [T34M]      T
 2  TYTFKVVNKDQAKKAAKWAKKLGLSFQIEKHGDTFKITVQ [D7V]      T
 3  TYTFKVDNKDQAKKAAKWAKKLALSFQIEKHGDTFKITVQ [G23A]      F
 4  TYTFKVDNKDQAKKAAKWAKKLGLSFQIEKHGDTFKYTVQ [I37Y]      F
 5  TYTFKVDNKDQAKKAAKWAKKEGLSFQIEKHGDTFKITVQ [L22E]      F
 6  TYTFKVDNKLQAKKAAKWAKKLGLSFQIEKHGDTFKITVQ [D10L]      T
 7  TYTFKVDNKDQAKKAAKWAKKLGLSFQIENHGDTFKITVQ [K30N]      F
 8  TYTFKVDIKDQAKKAAKWAKKLGLSFQIEKHGDTFKITVQ [N8I]      F
 9  TYTFKVDNKDQAKKAAKWAKKLGLSFQIEKHDDTFKITVQ [G32D]      F
10  TYTFKVDNKDQAKKAAKLAKKLGLSFQIEKHGDTFKITVQ [W18L]      F
11  TYTFKVMNKDQAKKAAKWAKKLGLSFQIEKHGDTFKITVQ [D7M]      T
12  TYTFKVDNKDQAKKAAKWAKKLGLSFQIEKHGDTFKITMQ [V39M]      F
13  TYTFKWDNKDQAKKAAKWAKKLGLSFQIEKHGDTFKITVQ [V6W]      F
14  TYTFKVDNKDQAKKAAKWAAKLGLSFQIEKHGDTFKITVQ [K20A]      T
15  TYTFKVDRKDQAKKAAKWAKKLGLSFQIEKHGDTFKITVQ [N8R]      F
16  TYTFKVDNKDQAKKAAKNAKKLGLSFQIEKHGDTFKITVQ [W18N]      F
17  TYTFKVDNKDQAKKAAKEAKKLGLSFQIEKHGDTFKITVQ [W18E]      F
18  TYTFKVDNKDQAKKAAKWAKKLGLSFQILKHGDTFKITVQ [E29L]      F
19  TYTFKVDNKDQAKIAAKWAKKLGLSFQIEKHGDTFKITVQ [K14I]      T
20  TYTFKVDNKDQAKKAAKWAKKLGLSFQIEPHGDTFKITVQ [K30P]      T
21  TYTFKVANKDQAKKAAKWAKKLGLSFQIEKHGDTFKITVQ [D7A]      T
